Molecular target: rat monoamine oxidase A (Rattus norvegicus, UniProt P21396)
Construct: from tissue
Sequence (P21396 whole entry): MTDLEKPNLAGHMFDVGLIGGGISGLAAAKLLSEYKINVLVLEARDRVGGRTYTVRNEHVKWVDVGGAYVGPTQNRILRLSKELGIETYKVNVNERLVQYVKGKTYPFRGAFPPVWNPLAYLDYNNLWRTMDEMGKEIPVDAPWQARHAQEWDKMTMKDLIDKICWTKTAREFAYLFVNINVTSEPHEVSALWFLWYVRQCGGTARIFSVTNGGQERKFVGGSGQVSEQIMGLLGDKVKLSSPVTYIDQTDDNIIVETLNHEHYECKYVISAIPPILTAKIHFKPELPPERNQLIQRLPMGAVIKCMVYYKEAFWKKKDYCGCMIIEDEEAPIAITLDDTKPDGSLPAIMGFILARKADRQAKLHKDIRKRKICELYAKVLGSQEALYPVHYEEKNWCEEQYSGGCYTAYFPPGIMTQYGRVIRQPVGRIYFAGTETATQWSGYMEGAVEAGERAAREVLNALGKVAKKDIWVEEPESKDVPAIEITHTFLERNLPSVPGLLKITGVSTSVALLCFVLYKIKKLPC
Experiment: Inhibition of MAO-A (spectrofluorimetric method)
Assay type: biochemical
Conditions: 10 μM compound
Value Type: MAO-A (%) @ 10μΜ

Return reported MAO-A (%) @ 10μΜ; argument: Cc1cc(=O)oc2ccc(OCC3CC(Cn4cnc5c(N6CCOCC6)ncnc54)=NO3)cc12 (stereo not drawn)
no

Return reported MAO-A (%) @ 10μΜ; argument: Cc1cc(=O)oc2cc(OCC3=NOC(Cn4cnc5c(Cl)ncnc54)C3)ccc12 (stereo not drawn) [11e]
no

Return reported MAO-A (%) @ 10μΜ; argument: O=c1cc(OCC2CC(Cn3cnc4c(N5CCCCC5)ncnc43)=NO2)c2ccccc2o1 (stereo not drawn)
no
